Test system: Pseudomonas aeruginosa
Protocol: Antimicrobial activity against Pseudomonas aeruginosa ATCC 10145 assessed as growth inhibition after 18-24 hr by broth double microdilution method
Format: functional
The source made the active and inactive calls. No cut-off for these calls is given here.
Reported endpoint: MIC

Cc1nn(-c2ccc(/N=C/c3c(Cl)cccc3Cl)cc2F)c(=O)n1CCCn1ccnc1 inactive
Cc1nn(CN2CCCCC2)c(=O)n1CCCn1ccnc1 < 0.12 µg/mL
Cc1nn(CN2CCN(c3ccccc3)CC2)c(=O)n1CCCn1ccnc1 31.3 µg/mL
COc1ccc(/C=N/NC(=O)Cn2nc(C)n(/N=C/c3ccncc3)c2=O)cc1O inactive
Cc1nn(Cc2nnc(S)n2-c2ccccc2)c(=O)n1CCCn1ccnc1 inactive
Cc1nn(CNCc2ccco2)c(=O)n1CCCn1ccnc1 inactive
COc1ccc(/C=N/NC(=O)Cn2nc(C)n(/N=C/c3ccncc3)c2=O)cc1 inactive

The record that follows has no MIC shown yet.
Ask: Form entry - test system: Pseudomonas aeruginosa; read-out: MIC; compound: "Cc1nn(CC(=O)N/N=c2\sc(-c3ccc(Cl)cc3)cn2-c2ccccc2)c(=O)n1CCCn1ccnc1"
Result: inactive
